Below, each of the molecules is paired with its reported solubility value.
- EXPERIMENT: Assessment of solubility: HT solubility in pION buffer, UV spectrophotometry
- CONDITIONS USED: pION system solution buffer, pH 4.5, pH 4.5, aqueous buffer, kinetic from dmso stock, Solubility (pH 4.5), pH 4.5 buffer, 16-19 h incubation, 1.0% DMSO

Some solved entries appear below for comparison.
| MOLECULE | RESULT |
| --- | --- |
| Cc1ccc(OCc2ccc(C(=O)N3CCn4ncnc4C3)cc2C)c(-c2csc(N3C[C@H]4CC[C@@H](C3)[C@H]4C(=O)O)n2)c1 [Compound 327] | < 0.1 µg/mL |
| Cc1cc(CN2CCOCC2)ccc1COc1c(C#N)cccc1-c1csc(N2CCC(C(=O)O)CC2)n1 [Compound 35] | > 53 µg/mL |

Query: GET /values?readout=solubility&item= Cc1ccc(OCc2ccc(CN3CCS(=O)(=O)CC3)cc2C)c(-c2csc(N3CC[C@]4(C(=O)O)C[C@@H]4C3)n2)c1 [Compound 222]
Result: < 0.1 µg/mL

Query: What about CC[C@]1(C(=O)O)[C@@H]2CC[C@H]1CN(c1nc(-c3cc(C)ccc3OCc3ccc(C(=O)N4CCCCC4)cc3C)cs1)C2 [Compound 250] ?
Result: < 0.1 µg/mL

Query: Now consider Cc1ccc(OCc2ccc(CN3CCOCC3)cc2C)c(-c2csc(N3CC4C(C3)C4C(=O)O)n2)c1 (centres unmarked) [Compound 14] .
Result: > 63 µg/mL
